- procedure.summary: Particle size test of crystal form I (micrometer particle size analyzer MS3000, dry method)
- Type: physicochemical
- test.parameters: particle size analysis, Dv 10
property: particle size Dv10 (µm)
Numeric answer only, unit µm assumed.

Would you mind telling me what particle size Dv10 value was observed for Cc1cc(OC[P@@]2(=O)OCC[C@@H](c3cccc(Cl)c3)O2)cc(C)c1Cc1ccc(O)c(C(C)C)c1 ?
6.41

###

- procedure.summary: Particle size test of crystal form I (micrometer particle size analyzer MS3000, dry method)
- Format: physicochemical
- test.parameters: particle size analysis, Dv 95
property: particle size Dv95 (µm)
Numeric answer only, unit µm assumed.

Would you mind telling me what particle size Dv95 value was observed for Cc1cc(OC[P@@]2(=O)OCC[C@@H](c3cccc(Cl)c3)O2)cc(C)c1Cc1ccc(O)c(C(C)C)c1 ?
59.1

###

- procedure.summary: Particle size test of crystal form I (micrometer particle size analyzer MS3000, dry method)
- Format: physicochemical
- test.parameters: particle size analysis, Dv 50
property: particle size Dv50 (µm)
Numeric answer only, unit µm assumed.

Would you mind telling me what particle size Dv50 value was observed for Cc1cc(OC[P@@]2(=O)OCC[C@@H](c3cccc(Cl)c3)O2)cc(C)c1Cc1ccc(O)c(C(C)C)c1 ?
20.3
